# System: ApsR-P (phosphorylated with acetyl-phosphate) (Lacticaseibacillus paracasei BL23)
# assay.remarks: BLI
# experimental.parameters: BLI (BLITz, streptavidin sensors, DNA immobilized): 50 mM Tris-HCl pH 7.4, 150 mM NaCl, 0.1% Tween 20; protein preincubated 30 min with 50 mM phosphodonor and …
measured.endpoint: Kd

- sequence.content: "GGTAAAGAAAGACTAAAGCAGCTTACAAAGCCGTAAGTTACAAACAACCATCCGTTAGGCCATTATCAGGAAAAAGGCAGCCTAACCCGCTATCATAAAG (double strand) [PderA]"
  target: "ApsR-P (phosphorylated with acetyl-phosphate) (Lacticaseibacillus paracasei BL23)"
  measured.endpoint: "Kd"
  measured.result: "4.74 µM"
- sequence.content: "TCACGCTTCTCATATTACGAAACTGTTAGCTCATTGTTACGCAATTCGTTGGCGTCATTTTTTCTGAAAACCTATAATGAATGTGTAAATAAAAACGTGG (double strand) [Pdlt]"
  target: "ApsR-P (phosphorylated with acetyl-phosphate) (Lacticaseibacillus paracasei BL23)"
  measured.endpoint: "Kd"
  measured.result: "7.47 µM"
- sequence.content: "CAATCATCTCGCAAACTTACATCACCTTACAAAAAGGTCAGAAAGGGTGCGAGGGGCTTGTAGATTTCCTATAATGAATAGGAATATAGACACGGAGGAC (double strand) [PmprF]"
  target: "ApsR-P (phosphorylated with acetyl-phosphate) (Lacticaseibacillus paracasei BL23)"
  measured.endpoint: "Kd"
  measured.result: "26.6 µM"
- sequence.content: "GTAAGCTACCTTACCAGCTTGTAAGCAACTACGAATCACTGTAAGTAGGCATGGGGCATCATCCCCGCTAAGCTAATAAATGAAAGGGGACGATCACATG (double strand) [PpsdA]"
  target: "ApsR-P (phosphorylated with acetyl-phosphate) (Lacticaseibacillus paracasei BL23)"
  measured.endpoint: "Kd"
  measured.result: "108 µM"
